test system: UACC-257 melanoma; experiment: NCI tumour cell line growth inhibition, 48 h
Listing of entries alongside the reported TGI.

query: // query TGI value for entry CCOC(=O)C1=C(C)N=c2s/c(=C\c3ccccc3O)c(=O)n2C1c1ccc(OC)c2ccccc12 (stereo not drawn)
result: > 100 µM

query: // query TGI value for entry `O=[N+]([O-])c1ccc2nc(Cl)n[n+]([O-])c2c1`
result: 29.3 µM

query: // query TGI value for entry `Cc1c(O)c2ccccc2oc1=O`
result: > 100 µM

* * *

tested on: PC-3 prostate; assay: NCI tumour cell line growth inhibition, 48 h
Listing of entries alongside the reported TGI.

Please review the following examples before continuing.
* COc1cc(C(=O)/C=C/c2ccc(OCCSCCCCCCCCCCSCCOc3ccc(/C=C/C(=O)c4cc(OC)c(OC)c(OC)c4)cc3)cc2)cc(OC)c1OC | > 100 µM
* COc1ccc(NC(=S)N/N=C\c2ccc(NC(C)=O)cc2)cc1 | > 100 µM

query: // query TGI value for entry `Cc1ccc2c(=O)cc(Cc3cccs3)[nH]c2n1`
result: > 100 µM

* * *

test system: SNB-75 CNS; assay: NCI tumour cell line growth inhibition, 48 h
experimental endpoint: TGI

Please review the following examples before continuing.
- NCCCNc1nc2ccccc2c2c(=O)c3cc(F)cc(F)c3sc12: 2.7 µM
- COc1ccc2c(c1)[n+]([O-])c(-c1ccc([N+](=O)[O-])cc1)c(N)[n+]2[O-]: > 100 µM
- CN(C)CCCC1c2ccccc2Oc2ccc(C(F)(F)F)cc21 (centres undefined): 27.7 µM

query: Could you share what TGI was measured for `COc1ccc(OC(C)=O)c2c1CCC=CC2=O` , tested on SNB-75 CNS?
result: 29.3 µM

* * *

tested on: OVCAR-3 ovarian; assay: NCI tumour cell line growth inhibition, 48 h
Listing of entries alongside the reported TGI.

Please review the following examples before continuing.
* COc1cc(/C=C2/SC(c3ccccc3)N(Cc3ccccc3)C2=O)cc(OC)c1OC (stereo not drawn) | > 100 µM
* Cc1ccc2c(=O)cc(Cc3cccs3)[nH]c2n1 | > 100 µM

Below: the item to evaluate.
query: // query TGI value for entry OC(c1cc(-c2cccc(Cl)c2)nc2ccccc12)C1CCCCN1 (stereo not drawn)
result: 3.21 µM

* * *

Listing of entries alongside the reported TGI.
test system: IGROV1 ovarian; assay: NCI tumour cell line growth inhibition, 48 h
Please reply with the bare figure in µM and do not write the unit itself.

Please review the following examples before continuing.
• C=C1CCCC2[C@](C)(CC3=C(Cl)C(=O)C=C(OC)C3=O)C(C)CC[C@]12C (some centres not stated) = 4.76
• COc1cc(=O)c2c(O)c3c(O)oc(C)cc3c(OC)c2c1 = 70.2

Below: the item to evaluate.
query: // query TGI value for entry `Cc1cc(=O)[nH]c(N/N=C/c2cc(Br)ccc2O)n1`
result: 0.706

* * *

system: SNB-78 CNS; assay: NCI tumour cell line growth inhibition, 48 h
experimental endpoint: TGI

Please review the following examples before continuing.
- O=S(=O)([O-])c1ccc(N=Cc2ccccc2[O-])cc1.O=S(=O)([O-])c1ccc(N=Cc2ccccc2[O-])cc1.[O]=[U+2]=[O]: > 100 µM
- Cc1ccc(S(=O)(=O)c2ccc(NC(=O)SCCC(=O)O)cc2)cc1: > 100 µM

Below: the item to evaluate.
query: // query TGI value for entry NC1=NC2=c3ccccc3=C(c3cnccn3)C2(c2cnccn2)c2ccccc21 (stereo not drawn)
result: > 100 µM
